# experimental-target: EGFR Del19/T790M/C797S (Homo sapiens, UniProt P00533, C797S/DEL746-750/T790M)
# Sequence (P00533 with tags, fused parts or gaps DEL746-750/T790M/C797S): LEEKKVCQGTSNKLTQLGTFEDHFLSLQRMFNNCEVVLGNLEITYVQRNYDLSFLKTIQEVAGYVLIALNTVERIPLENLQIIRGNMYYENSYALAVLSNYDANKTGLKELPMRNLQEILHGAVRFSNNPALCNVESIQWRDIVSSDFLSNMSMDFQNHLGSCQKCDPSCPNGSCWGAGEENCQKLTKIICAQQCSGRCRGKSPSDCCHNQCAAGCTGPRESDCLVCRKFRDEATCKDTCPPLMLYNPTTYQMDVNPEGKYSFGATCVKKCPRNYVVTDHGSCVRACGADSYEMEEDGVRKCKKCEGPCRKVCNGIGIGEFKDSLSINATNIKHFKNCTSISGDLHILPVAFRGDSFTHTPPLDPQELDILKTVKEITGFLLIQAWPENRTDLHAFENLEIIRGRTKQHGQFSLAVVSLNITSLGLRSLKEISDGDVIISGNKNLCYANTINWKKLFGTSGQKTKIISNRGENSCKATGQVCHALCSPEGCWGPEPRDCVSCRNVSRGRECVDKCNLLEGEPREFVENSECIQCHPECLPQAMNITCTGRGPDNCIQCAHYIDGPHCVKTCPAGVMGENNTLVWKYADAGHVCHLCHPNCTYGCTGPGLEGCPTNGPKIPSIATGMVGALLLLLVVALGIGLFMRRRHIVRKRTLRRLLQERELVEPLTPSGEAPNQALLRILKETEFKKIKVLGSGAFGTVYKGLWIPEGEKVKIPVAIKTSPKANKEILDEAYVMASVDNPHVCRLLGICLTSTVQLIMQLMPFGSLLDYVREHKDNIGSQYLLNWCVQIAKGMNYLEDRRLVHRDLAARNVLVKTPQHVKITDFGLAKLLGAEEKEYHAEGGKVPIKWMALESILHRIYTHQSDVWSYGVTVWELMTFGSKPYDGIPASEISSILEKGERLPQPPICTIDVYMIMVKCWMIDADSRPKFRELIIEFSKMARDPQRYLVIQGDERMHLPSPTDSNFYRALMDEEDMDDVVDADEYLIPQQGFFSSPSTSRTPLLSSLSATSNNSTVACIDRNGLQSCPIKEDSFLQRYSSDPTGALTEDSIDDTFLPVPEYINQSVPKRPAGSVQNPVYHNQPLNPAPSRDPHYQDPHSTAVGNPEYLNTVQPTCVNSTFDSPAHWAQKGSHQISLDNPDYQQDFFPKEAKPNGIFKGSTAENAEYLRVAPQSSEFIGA
# test-method-notes: Biochemical EGFR kinase inhibition assay (Lance Ultra TR-FRET), triple mutant del19/T790M/C797S
# condition-label: IC50 Del19/T790M/C797S (nM), 100 μM ATP
# Method: Biochemical EGFR kinase assays were conducted using Lance Ultra time-resolved fluorescence resonance energy transfer (TR-FRET) technology from Perkin-Elmer. […] Each kinase reactions were incubated at room temperature for 1 hour and then stopped by the addition of 4 μL of stop solution (10 mM EDTA). […] After 60 minutes incubation at room temperature the LANCE signal was measured on an EnVision Multilabel Reader (Perkin-Elmer). […]
# note: exactly 1 nM is not below, so it is not satisfied; use satisfied for IC50 strictly under it

Enquiry: Given O=S(=O)(C1CC1)n1cc(-c2nccc(Nc3cc(N[C@H]4CC[C@@H](NCCF)CC4)c(C#Cc4cnn(CC(F)(F)F)c4)cn3)n2)cn1 , is recorded IC50 strictly lower than 1 nM?
Return: not satisfied

Enquiry: Below 1 nM on IC50? Entry Cn1ccc(C#Cc2cnc(Nc3ccnc(-c4cnn(S(=O)(=O)C5CC5)c4)n3)cc2N[C@H]2CC[C@@H](O)CC2)n1
Return: not satisfied

Enquiry: Lab log: compare recorded IC50 with 1 nM; is it strictly lower for CC1(CO)CCN(c2cc(Nc3ccnc(-c4cnn(S(=O)(=O)C5CC5)c4)n3)ncc2C#Cc2cnn(CC3CCCOC3)c2)CC1 (stereo not drawn) ?
Return: not satisfied

Enquiry: Below 1 nM on IC50? Entry CN(C)C[C@H]1CC[C@@H](Nc2cc(Nc3ccnc(-c4cnn(S(=O)(=O)C5CC5)c4)n3)ncc2C#Cc2cnn(C3CC3)c2)CC1
Return: satisfied

Enquiry: API: query returns whether the compound falls strictly under 1 nM in IC50. Query: CN1CCN(Cc2ccc(C#Cc3cnc(Nc4ccnc(-c5cnn(S(=O)(=O)C6CC6)c5)n4)cc3NC[C@H]3CC[C@H](O)CC3)cc2)CC1
Return: satisfied

Enquiry: Determine whether this compound shows IC50 lower than 1 nM (ties excluded): O=S(=O)(C1CC1)n1cc(-c2nccc(Nc3cc(NC[C@H]4CC[C@H](CO)CC4)c(C#Cc4cnn(CCF)c4)cn3)n2)cn1
Return: not satisfied

###

Assign IC50 to each entry below.
# experimental-target: EGFR Del19/C797S (Homo sapiens, UniProt P00533, C797S/DEL746-750)
# Sequence (P00533 with tags, fused parts or gaps DEL746-750/C797S): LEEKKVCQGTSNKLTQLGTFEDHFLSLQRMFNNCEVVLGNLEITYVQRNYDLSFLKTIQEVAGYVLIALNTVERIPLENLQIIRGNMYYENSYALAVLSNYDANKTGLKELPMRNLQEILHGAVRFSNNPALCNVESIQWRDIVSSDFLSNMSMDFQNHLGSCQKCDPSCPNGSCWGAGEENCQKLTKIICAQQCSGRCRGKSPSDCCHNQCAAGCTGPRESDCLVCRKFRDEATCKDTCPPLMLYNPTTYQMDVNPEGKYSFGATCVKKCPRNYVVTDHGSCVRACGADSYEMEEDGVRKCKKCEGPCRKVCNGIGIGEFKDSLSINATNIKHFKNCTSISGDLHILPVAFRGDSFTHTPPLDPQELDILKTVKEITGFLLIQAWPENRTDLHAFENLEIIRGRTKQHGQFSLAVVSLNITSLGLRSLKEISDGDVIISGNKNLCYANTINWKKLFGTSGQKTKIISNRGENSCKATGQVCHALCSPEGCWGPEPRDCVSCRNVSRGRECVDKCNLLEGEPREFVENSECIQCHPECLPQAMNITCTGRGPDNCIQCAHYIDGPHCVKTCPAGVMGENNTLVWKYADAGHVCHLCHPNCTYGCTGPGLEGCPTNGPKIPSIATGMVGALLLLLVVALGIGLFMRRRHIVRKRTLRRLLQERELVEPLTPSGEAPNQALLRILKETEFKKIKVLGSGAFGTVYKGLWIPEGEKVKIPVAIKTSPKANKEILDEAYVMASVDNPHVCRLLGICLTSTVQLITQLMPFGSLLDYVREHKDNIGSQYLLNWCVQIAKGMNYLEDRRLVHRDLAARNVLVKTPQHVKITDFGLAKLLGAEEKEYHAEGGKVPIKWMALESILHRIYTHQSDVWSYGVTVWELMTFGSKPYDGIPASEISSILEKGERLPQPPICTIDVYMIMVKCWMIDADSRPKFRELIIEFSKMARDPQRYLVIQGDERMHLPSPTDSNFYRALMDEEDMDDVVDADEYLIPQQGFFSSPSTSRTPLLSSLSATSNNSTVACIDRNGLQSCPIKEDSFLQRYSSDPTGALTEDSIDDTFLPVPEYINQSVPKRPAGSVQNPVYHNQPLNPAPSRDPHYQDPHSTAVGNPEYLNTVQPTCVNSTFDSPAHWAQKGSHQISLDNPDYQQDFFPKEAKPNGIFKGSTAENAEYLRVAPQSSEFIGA
# test-method-notes: Biochemical EGFR kinase inhibition assay (Lance Ultra TR-FRET), double mutant del19/C797S
# condition-label: IC50 Del19/C797S (nM), 100 μM ATP
Numeric answer only, unit nM assumed.

Enquiry: // IC50 lookup, key: O=S(=O)(C1CC1)n1cc(-c2nccc(Nc3cc(N4CCC(O)CC4)c(C#Cc4cnn(C5CC5(F)F)c4)cn3)n2)cn1 (stereo not shown)
Return: 3.5

Enquiry: Entry O=S(=O)(C1CC1)n1cc(-c2nccc(Nc3cc(N4CCC(CO)C4)c(C#Cc4cnn(CCF)c4)cn3)n2)cn1 (stereo not shown) has what IC50?
Return: 11.5

Enquiry: Fill in: IC50 of Cn1cc(C#Cc2cnc(Nc3ccnc(-c4cnn(S(=O)(=O)C5CC5)c4)n3)cc2N2CCC(CO)CC2)c(C(F)(F)F)n1 is ___
Return: 28.5

Enquiry: What does the data say about its IC50? Entry: Cn1cc(C#Cc2cnc(Nc3ccnc(-c4cnn(S(=O)(=O)C5CC5)c4)n3)cc2N2CCC3(CCNC3=O)CC2)cn1
Return: 1.3
